test system: GLUT-1; test: Caco-2 monolayer efflux assay, Apparent Permeability (Papp), with or without GLUT-1 inhibitor phloretin; format: in vitro ADME, Human; conditions: human, with phloretin (GLUT-1 inhibitor), in Phloretin, read-out: Papp B → A, Phloretin
quantity: Papp B→A (×10⁻⁶ cm/s)
Your answer is read as ×10⁻⁶ cm/s, so omit the unit and give the number.

molecule: COc1ccc(-c2noc(CC(=O)OCC3OC(O)C(O)C(O)C3O)c2-c2ccc(OC)cc2)cc1 (centres unmarked) [GALMOF0]
Papp B→A [×10⁻⁶ cm/s]: 61

Exercise: Give Papp B→A (GLUT-1) of the following molecule: COc1ccc(-c2noc(CC(=O)NCCCCCCCCCCC(=O)OCC3OC(O)C(O)C(O)C3O)c2-c2ccc(OC)cc2)cc1 (centres unmarked) [GALMOF11]
Solution: 62.2

* * *

molecular target: ovine COX-1 (Ovis aries (Sheep)); test: colorimetric COX (ovine) inhibitor screening assay kit; format: biochemical; conditions: read-out: COX-1 [% inhibition at 50 μM]; ovine COX-1, 50 μM
quantity: inhibition at 50 µM (%)
Your answer is read as %, so omit the unit and give the number.

// solved cases for inhibition at 50 µM follow
molecule: COc1ccc(-c2noc(CC(=O)NCCCCNC(=O)Cc3onc(-c4ccc(OC)cc4)c3-c3ccc(OC)cc3)c2-c2ccc(OC)cc2)cc1 [drawing 64]
system.under.test: ovine COX-1 (Ovis aries (Sheep))
inhibition at 50 µM / %: 74
--
molecule: COc1ccc(-c2noc(CC(=O)NCC(=O)O)c2-c2ccc(OC)cc2)cc1
system.under.test: ovine COX-1 (Ovis aries (Sheep))
inhibition at 50 µM / %: 23
--
molecule: CCCCC/C=C\C/C=C\C/C=C\C/C=C\CCCC(=O)NCCCCNC(=O)Cc1onc(-c2ccc(OC)cc2)c1-c1ccc(OC)cc1
system.under.test: ovine COX-1 (Ovis aries (Sheep))
inhibition at 50 µM / %: 57
--
molecule: CCCCC/C=C\C/C=C\C/C=C\C/C=C\CCCC(=O)Nc1ccc(NC(=O)Cc2onc(-c3ccc(OC)cc3)c2-c2ccc(OC)cc2)cc1
system.under.test: ovine COX-1 (Ovis aries (Sheep))
inhibition at 50 µM / %: 66
--
molecule: COc1ccc(-c2noc(CC(=O)NCCCCCCNC(=O)Cc3onc(-c4ccc(OC)cc4)c3-c3ccc(OC)cc3)c2-c2ccc(OC)cc2)cc1
system.under.test: ovine COX-1 (Ovis aries (Sheep))
inhibition at 50 µM / %: 50
--
molecule: COc1ccc(-c2noc(CC(=O)O)c2-c2ccc(OC)cc2)cc1 [drawing 42, reference compound]
system.under.test: ovine COX-1 (Ovis aries (Sheep))
inhibition at 50 µM / %: 100

Exercise: Query: inhibition at 50 µM; subject: COc1ccc(-c2noc(CC(=O)Nc3ccc(-c4ccc(NC(=O)Cc5onc(-c6ccc(OC)cc6)c5-c5ccc(OC)cc5)cc4)cc3)c2-c2ccc(OC)cc2)cc1 [drawing 66]
Solution: 73

Exercise: Query: inhibition at 50 µM; subject: COc1ccc(-c2noc(CC(=O)NCCNC(=O)Cc3onc(-c4ccc(OC)cc4)c3-c3ccc(OC)cc3)c2-c2ccc(OC)cc2)cc1 [drawing 61]
Solution: 75

Exercise: Query: inhibition at 50 µM; subject: COc1ccc(-c2noc(CC(=O)OCC3OC(O)C(O)C(O)C3O)c2-c2ccc(OC)cc2)cc1 (centres unmarked) [drawing 44]
Solution: 100

Exercise: Query: inhibition at 50 µM; subject: "COC(=O)CNC(=O)Cc1onc(-c2ccc(OC)cc2)c1-c1ccc(OC)cc1"
Solution: 95

Exercise: Query: inhibition at 50 µM; subject: COc1ccc(-c2noc(CC(=O)Nc3ccc(NC(=O)Cc4onc(-c5ccc(OC)cc5)c4-c4ccc(OC)cc4)cc3)c2-c2ccc(OC)cc2)cc1 [drawing 65]
Solution: 85

* * *

Record type: pIC50 measurement. Applies to: ovine COX-1 (Ovis aries (Sheep))
// field semantics: pIC50 = negative decimal log of concentration (mol/L)

compound: COc1ccc(-c2noc(CC(=O)OCC3OC(O)C(O)C(O)C3O)c2-c2ccc(OC)cc2)cc1 (centres unmarked) [drawing 44]
quantitative.result: 7.00

Exercise: Give pIC50 (ovine COX-1 (Ovis aries (Sheep))) of the following compound: "CCCCC/C=C\C/C=C\C/C=C\C/C=C\CCCC(=O)NCCCCNC(=O)Cc1onc(-c2ccc(OC)cc2)c1-c1ccc(OC)cc1"
Solution: 4.80

Exercise: Give pIC50 (ovine COX-1 (Ovis aries (Sheep))) of the following compound: COc1ccc(-c2noc(CC(=O)Nc3ccc(-c4ccc(NC(=O)Cc5onc(-c6ccc(OC)cc6)c5-c5ccc(OC)cc5)cc4)cc3)c2-c2ccc(OC)cc2)cc1 [drawing 66]
Solution: 7.10

* * *

target: UniProt P79208; experiment: colorimetric COX (ovine) inhibitor screening assay kit; assay type: biochemical; details: read-out: COX-2 [% inhibition at 50 μM]; ovine COX-2, 50 μM
Quick list: inhibition at 50 µM per entry.
Kindly report the value followed by its unit.

molecule: COc1ccc(-c2noc(CC(=O)NCC(=O)O)c2-c2ccc(OC)cc2)cc1
result: 17%

molecule: COc1ccc(-c2noc(CC(=O)NCCNC(=O)Cc3onc(-c4ccc(OC)cc4)c3-c3ccc(OC)cc3)c2-c2ccc(OC)cc2)cc1 [drawing 61]
result: 45%

Next molecule, inhibition at 50 µM to be filled in.
Exercise: Query: inhibition at 50 µM; subject: "COC(=O)CNC(=O)Cc1onc(-c2ccc(OC)cc2)c1-c1ccc(OC)cc1"
Solution: 80%

* * *

test: Caco-2 monolayer efflux assay, Apparent Permeability (Papp), with or without GLUT-1 inhibitor phloretin; format: in vitro ADME, Human; conditions: human, compound alone
quantity: Papp A→B (×10⁻⁶ cm/s)
Your answer is read as ×10⁻⁶ cm/s, so omit the unit and give the number.

Exercise: Query: Papp A→B; subject: COc1ccc(-c2noc(CC(=O)NCCCCC(=O)OC[C@H]3OC(O)[C@H](O)[C@@H](O)[C@H]3O)c2-c2ccc(OC)cc2)cc1 (mixture of isomers)
Solution: 32.1

* * *

biological target: ovine COX-1 (Ovis aries (Sheep), UniProt P05979); assay: colorimetric COX (ovine) inhibitor screening assay kit; assay type: biochemical; settings: ovine COX-1
Sequence (P05979 25-600): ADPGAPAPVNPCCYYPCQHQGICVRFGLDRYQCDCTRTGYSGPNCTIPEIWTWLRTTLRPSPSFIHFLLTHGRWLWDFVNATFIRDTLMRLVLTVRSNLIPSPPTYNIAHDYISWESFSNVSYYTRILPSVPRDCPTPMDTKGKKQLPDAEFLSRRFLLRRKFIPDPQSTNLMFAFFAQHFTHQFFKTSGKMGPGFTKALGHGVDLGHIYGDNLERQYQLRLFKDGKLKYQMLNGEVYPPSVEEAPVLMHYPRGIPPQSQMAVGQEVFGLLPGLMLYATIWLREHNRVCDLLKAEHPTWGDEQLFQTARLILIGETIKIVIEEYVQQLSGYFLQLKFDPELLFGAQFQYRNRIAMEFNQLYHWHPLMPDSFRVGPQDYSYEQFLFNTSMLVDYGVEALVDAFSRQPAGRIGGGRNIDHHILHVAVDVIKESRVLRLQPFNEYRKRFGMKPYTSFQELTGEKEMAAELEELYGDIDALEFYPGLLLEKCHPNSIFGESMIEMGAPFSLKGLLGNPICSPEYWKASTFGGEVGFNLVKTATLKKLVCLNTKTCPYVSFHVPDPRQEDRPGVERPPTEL
Quick rule for you: IC50 under 200 nM gets class 1, anything else gets class 0.

Observe how each entry below is paired with its result.
compound: COc1ccc(-c2noc(CC(=O)NCCCCNC(=O)Cc3onc(-c4ccc(OC)cc4)c3-c3ccc(OC)cc3)c2-c2ccc(OC)cc2)cc1 [drawing 64]
class.assignment: class 0
--
compound: COc1ccc(-c2noc(CC(=O)NCCNC(=O)Cc3onc(-c4ccc(OC)cc4)c3-c3ccc(OC)cc3)c2-c2ccc(OC)cc2)cc1 [drawing 61]
class.assignment: class 1

Exercise: Lab note: IC50 threshold 200 nM. Does this compound come in strictly under it? "COC(=O)CNC(=O)Cc1onc(-c2ccc(OC)cc2)c1-c1ccc(OC)cc1"
Solution: class 1

Exercise: Lab note: IC50 threshold 200 nM. Does this compound come in strictly under it? "CCCCC/C=C\C/C=C\C/C=C\C/C=C\CCCC(=O)Nc1ccc(NC(=O)Cc2onc(-c3ccc(OC)cc3)c2-c2ccc(OC)cc2)cc1"
Solution: class 1

Exercise: Lab note: IC50 threshold 200 nM. Does this compound come in strictly under it? COc1ccc(-c2noc(CC(=O)Nc3ccc(NC(=O)Cc4onc(-c5ccc(OC)cc5)c4-c4ccc(OC)cc4)cc3)c2-c2ccc(OC)cc2)cc1 [drawing 65]
Solution: class 1

* * *

target: ovine COX-2 (Ovis aries (Sheep), UniProt P79208); assay: colorimetric COX (ovine) inhibitor screening assay kit; assay type: biochemical; settings: read-out: COX-2 [% inhibition at 50 μM]; ovine COX-2, 50 μM
Sequence (P79208 17-603): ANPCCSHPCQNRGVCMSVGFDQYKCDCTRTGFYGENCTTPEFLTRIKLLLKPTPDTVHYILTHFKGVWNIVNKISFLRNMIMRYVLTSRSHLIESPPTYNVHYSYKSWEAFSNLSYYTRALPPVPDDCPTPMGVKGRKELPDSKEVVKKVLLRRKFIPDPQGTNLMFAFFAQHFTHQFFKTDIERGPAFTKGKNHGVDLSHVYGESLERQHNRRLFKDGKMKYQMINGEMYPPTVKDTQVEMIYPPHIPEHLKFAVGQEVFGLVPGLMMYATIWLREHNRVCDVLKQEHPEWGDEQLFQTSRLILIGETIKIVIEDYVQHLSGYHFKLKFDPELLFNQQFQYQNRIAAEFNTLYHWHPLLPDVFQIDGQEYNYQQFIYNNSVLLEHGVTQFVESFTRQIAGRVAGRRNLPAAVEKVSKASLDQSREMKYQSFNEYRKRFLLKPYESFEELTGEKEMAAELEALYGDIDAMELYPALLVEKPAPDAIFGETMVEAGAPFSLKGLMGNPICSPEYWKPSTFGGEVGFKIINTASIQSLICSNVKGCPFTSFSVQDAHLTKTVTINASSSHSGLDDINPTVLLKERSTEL
The threshold is inclusive: inhibition at 50 µM of exactly 40% counts as fulfilled; values below receive not fulfilled.

Exercise: Item COc1ccc(-c2noc(CC(=O)OCC3OC(O)C(O)C(O)C3O)c2-c2ccc(OC)cc2)cc1 (centres unmarked) [drawing 44] with inhibition at 50 µM of 40% or above?
Solution: fulfilled

Exercise: Item "COc1ccc(-c2noc(CC(=O)NCCCCCCNC(=O)Cc3onc(-c4ccc(OC)cc4)c3-c3ccc(OC)cc3)c2-c2ccc(OC)cc2)cc1" with inhibition at 50 µM of 40% or above?
Solution: not fulfilled

Exercise: Item COc1ccc(-c2noc(CC(=O)O)c2-c2ccc(OC)cc2)cc1 [drawing 42, reference compound] with inhibition at 50 µM of 40% or above?
Solution: not fulfilled

Exercise: Item "CCCCC/C=C\C/C=C\C/C=C\C/C=C\CCCC(=O)NCCCCNC(=O)Cc1onc(-c2ccc(OC)cc2)c1-c1ccc(OC)cc1" with inhibition at 50 µM of 40% or above?
Solution: fulfilled
